# GI50 annotations
- Test system: HCT-15
Unit µM implied. Number only.

These solved cases illustrate the format of a correct answer.
Param item: O=c1c2cc(Br)ccc2nc(CNc2ccccc2)n1-c1ccccc1 ; param system: HCT-15; output GI50: 16.7

Param item: O=C(/C=C/c1ccc2c(c1)OCO2)Cc1nc2ccccc2[nH]c1=O ; param system: HCT-15; output GI50: 8.95

Further cases:
Param item: CC[N+](CC)(CC)/C(=N\S(=O)(=O)c1ccc(Cl)cc1)[N-]S(=O)(=O)c1cc(C)c(Cl)cc1S ; param system: HCT-15; output GI50: 66.7

Param item: CC(C)=CCC[C@@H](C)C1=C(N)C(=O)C(C)=C(O)C1=O ; param system: HCT-15; output GI50: 23.3
